Assay: One hour kinetic solubility in acetic acid/sodium acetate ion mixtures
Assay type: physicochemical
Conditions: acetic acid/sodium acetate buffer, 25 °C, pH 6, aqueous buffer, thermodynamic from solid, pH 6.0; acetic acid/sodium acetate 0.1 M; 25° C.; read-out: Solubility at 1 hr
Parameter Measured: solubility at 1 h (mg/mL)
API: value field is a number in mg/mL; no unit string.

Challenge: Identify measured solubility at 1 h corresponding to CC(=O)[O-].CCO/N=C(\C(=O)N[C@@H]1C(=O)N2C(C(=O)O)=C(Sc3nc(-c4cc[n+](C)cc4)cs3)CS[C@H]12)c1nsc(NP(=O)(O)O)n1.O
Response given: 36

====

Assay: One hour kinetic solubility in L-arginine mixtures
Type: physicochemical
Conditions: L-arginine mixtures, 25 °C, aqueous buffer, thermodynamic from solid, at L-arginine concentrations of 0.5 M and higher; read-out: solubility
Parameter Measured: solubility at 1 h

Challenge: Identify measured solubility at 1 h corresponding to CC(=O)[O-].CCO/N=C(\C(=O)N[C@@H]1C(=O)N2C(C(=O)O)=C(Sc3nc(-c4cc[n+](C)cc4)cs3)CS[C@H]12)c1nsc(NP(=O)(O)O)n1.O [ceftaroline fosamil]
Response given: > 200 mg/mL

====

Test: pH solubility profile: one hour and three hour kinetic solubility in USP buffers at 0.05 M
Assay type: physicochemical
Details: aqueous buffer, thermodynamic from solid; pH 1.2; USP buffer 0.05 M; 25° C.
Parameter Measured: solubility at 1 h (µg/mL)
API: value field is a number in µg/mL; no unit string.

Challenge: Identify measured solubility at 1 h corresponding to CC(=O)[O-].CCO/N=C(\C(=O)N[C@@H]1C(=O)N2C(C(=O)O)=C(Sc3nc(-c4cc[n+](C)cc4)cs3)CS[C@H]12)c1nsc(NP(=O)(O)O)n1.O
Response given: 6000

====

Assay: pH solubility profile: one hour and three hour kinetic solubility in USP buffers at 0.05 M
Assay type: physicochemical
Details: aqueous buffer, thermodynamic from solid; pH 9.0; USP buffer 0.05 M; 25° C.
Parameter Measured: solubility at 3 h (mg/mL)
API: value field is a number in mg/mL; no unit string.

Challenge: Identify measured solubility at 3 h corresponding to CC(=O)[O-].CCO/N=C(\C(=O)N[C@@H]1C(=O)N2C(C(=O)O)=C(Sc3nc(-c4cc[n+](C)cc4)cs3)CS[C@H]12)c1nsc(NP(=O)(O)O)n1.O [ceftaroline fosamil]
Response given: 12

====

Assay: One hour kinetic solubility in DL arginine mixtures
Assay type: physicochemical
Details: DL arginine mixtures, 25 °C, aqueous buffer, thermodynamic from solid, at DL arginine concentrations of 1.0 M and higher; read-out: solubility
Parameter Measured: solubility at 1 h

Challenge: Identify measured solubility at 1 h corresponding to CC(=O)[O-].CCO/N=C(\C(=O)N[C@@H]1C(=O)N2C(C(=O)O)=C(Sc3nc(-c4cc[n+](C)cc4)cs3)CS[C@H]12)c1nsc(NP(=O)(O)O)n1.O
Response given: > 200 mg/mL

====

Test: Aqueous solubility (stated in the description)
Format: physicochemical
Details: water
solubility overview

| Molecule | Parameter Measured | Assay Value |
| --- | --- | --- |
| CCO/N=C(\C(=O)N[C@@H]1C(=O)N2C(C(=O)[O-])=C(Sc3nc(-c4cc[n+](C)cc4)cs3)CS[C@H]12)c1nsc(N)n1 [Ceftaroline, ceftaroline] | solubility | 2 to 3 mg/mL |

Next:
Challenge: Identify measured solubility corresponding to CC(=O)[O-].CCO/N=C(\C(=O)N[C@@H]1C(=O)N2C(C(=O)O)=C(Sc3nc(-c4cc[n+](C)cc4)cs3)CS[C@H]12)c1nsc(NP(=O)(O)O)n1.O [ceftaroline fosamil]
Response given: ~36 mg/mL

====

Experiment: One hour kinetic solubility in acetic acid/sodium acetate ion mixtures
Format: physicochemical
Conditions: USP buffer with acetic acid/sodium acetate, 25 °C, pH 3.2, aqueous buffer, thermodynamic from solid, pH 3.2; acetic acid/sodium acetate 2.0 M; 25° C.; read-out: Solubility at 1 hr
Parameter Measured: solubility at 1 h (mg/mL)
API: value field is a number in mg/mL; no unit string.

Challenge: Identify measured solubility at 1 h corresponding to CC(=O)[O-].CCO/N=C(\C(=O)N[C@@H]1C(=O)N2C(C(=O)O)=C(Sc3nc(-c4cc[n+](C)cc4)cs3)CS[C@H]12)c1nsc(NP(=O)(O)O)n1.O
Response given: 152

====

Assay: Linear calculated pharmacokinetic parameters following single dose IM injection
Type: in vivo, human
Conditions: human, in vivo, im, 891 mg
Parameter Measured: Tmax (h)
API: value field is a number in h; no unit string.

Challenge: Identify measured Tmax corresponding to CCO/N=C(\C(=O)N[C@@H]1C(=O)N2C(C(=O)[O-])=C(Sc3nc(-c4cc[n+](C)cc4)cs3)CS[C@H]12)c1nsc(N)n1 [Ceftaroline, ceftaroline]
Response given: 2

====

Assay: One hour kinetic solubility in acetic acid/sodium acetate ion mixtures
Type: physicochemical
Settings: acetic acid/sodium acetate buffer, 25 °C, pH 4.6, aqueous buffer, thermodynamic from solid, pH 4.6; acetic acid/sodium acetate 0.1 M; 25° C.; read-out: Solubility at 1 hr
Parameter Measured: solubility at 1 h (mg/mL)
API: value field is a number in mg/mL; no unit string.

Challenge: Identify measured solubility at 1 h corresponding to CC(=O)[O-].CCO/N=C(\C(=O)N[C@@H]1C(=O)N2C(C(=O)O)=C(Sc3nc(-c4cc[n+](C)cc4)cs3)CS[C@H]12)c1nsc(NP(=O)(O)O)n1.O [ceftaroline fosamil]
Response given: 36

====

Assay: pH solubility profile: one hour and three hour kinetic solubility in USP buffers at 0.05 M
Format: physicochemical
Conditions: aqueous buffer, thermodynamic from solid; pH 1.9; USP buffer 0.05 M; 25° C.
Parameter Measured: solubility at 3 h (µg/mL)
API: value field is a number in µg/mL; no unit string.

Challenge: Identify measured solubility at 3 h corresponding to CC(=O)[O-].CCO/N=C(\C(=O)N[C@@H]1C(=O)N2C(C(=O)O)=C(Sc3nc(-c4cc[n+](C)cc4)cs3)CS[C@H]12)c1nsc(NP(=O)(O)O)n1.O
Response given: 9000

====

Assay: pH solubility profile: one hour and three hour kinetic solubility in USP buffers at 0.05 M
Type: physicochemical
Settings: aqueous buffer, thermodynamic from solid; pH 7.3; USP buffer 0.05 M; 25° C.
Parameter Measured: solubility at 3 h (mg/mL)
API: value field is a number in mg/mL; no unit string.

Challenge: Identify measured solubility at 3 h corresponding to CC(=O)[O-].CCO/N=C(\C(=O)N[C@@H]1C(=O)N2C(C(=O)O)=C(Sc3nc(-c4cc[n+](C)cc4)cs3)CS[C@H]12)c1nsc(NP(=O)(O)O)n1.O
Response given: 24

====

Test: Linear calculated pharmacokinetic parameters following single dose IM injection
Type: in vivo, human
Conditions: human, in vivo, im, 557 mg
Parameter Measured: Tmax (h)
API: value field is a number in h; no unit string.

Challenge: Identify measured Tmax corresponding to CCO/N=C(\C(=O)N[C@@H]1C(=O)N2C(C(=O)[O-])=C(Sc3nc(-c4cc[n+](C)cc4)cs3)CS[C@H]12)c1nsc(N)n1
Response given: 2

====

Experiment: One hour kinetic solubility in histidine mixtures
Assay type: physicochemical
Conditions: USP buffer with histidine, 25 °C, aqueous buffer, thermodynamic from solid, histidine 0.1 M
Parameter Measured: solubility at 1 h (mg/mL)
API: value field is a number in mg/mL; no unit string.

Challenge: Identify measured solubility at 1 h corresponding to CC(=O)[O-].CCO/N=C(\C(=O)N[C@@H]1C(=O)N2C(C(=O)O)=C(Sc3nc(-c4cc[n+](C)cc4)cs3)CS[C@H]12)c1nsc(NP(=O)(O)O)n1.O [ceftaroline fosamil]
Response given: 75

====

Assay: Linear calculated pharmacokinetic parameters following single dose IM injection
Type: in vivo, human
Details: human, in vivo, im, 557 mg
Parameter Measured: Cmax (ng/mL)
API: value field is a number in ng/mL; no unit string.

Challenge: Identify measured Cmax corresponding to CCO/N=C(\C(=O)N[C@@H]1C(=O)N2C(C(=O)[O-])=C(Sc3nc(-c4cc[n+](C)cc4)cs3)CS[C@H]12)c1nsc(N)n1
Response given: 7900

====

Assay: Linear calculated pharmacokinetic parameters following single dose IM injection
Type: in vivo, human
Details: human, in vivo, im, 223 mg
Parameter Measured: Tmax
Please don't drop the unit; write it after the number.

Challenge: Identify measured Tmax corresponding to CCO/N=C(\C(=O)N[C@@H]1C(=O)N2C(C(=O)[O-])=C(Sc3nc(-c4cc[n+](C)cc4)cs3)CS[C@H]12)c1nsc(N)n1
Response given: 1.5 h

====

Assay: Part A: single-dose IM injection and IV infusion pharmacokinetic study in healthy human subjects
Format: in vivo
Conditions: human, in vivo, im, 1000 mg, AUC0-t
Parameter Measured: AUC0-t (µg·h/mL)
API: value field is a number in µg·h/mL; no unit string.

Challenge: Identify measured AUC0-t corresponding to CCO/N=C(\C(=O)N[C@@H]1C(=O)N2C(C(=O)[O-])=C(Sc3nc(-c4cc[n+](C)cc4)cs3)CS[C@H]12)c1nsc(N)n1
Response given: 110
